Experiment: Sunitinib multiple-dose pharmacokinetics
Assay type: in vivo, patients
Conditions: human, plasma, oral, CL/F, subject 1001; multiple dose (dose 14), sunitinib 50 mg daily with everolimus 30 mg weekly; dose/AUCtau
READOUT NAME: CL/F (mL/min/kg)
Report the value in mL/min/kg with no unit label.

Look up CL/F for this compound: CCN(CC)CCNC(=O)c1c(C)[nH]c(/C=C2\C(=O)Nc3ccc(F)cc32)c1C [Sunitinib, Sunitinib malate] 7.13

###

Assay: Everolimus single-dose pharmacokinetics
Type: in vivo, patients
Conditions: human, plasma, po, Cmax, subject 1002; after first oral dose of everolimus 30 mg, with sunitinib 50 mg daily; plasma
READOUT NAME: Cmax (ng/mL)
Report the value in ng/mL with no unit label.

Look up Cmax for this molecule: "CO[C@H]1C[C@@H]2CC[C@@H](C)[C@@](O)(O2)C(=O)C(=O)N2CCCC[C@H]2C(=O)O[C@H]([C@H](C)C[C@@H]2CC[C@@H](OCCO)[C@H](OC)C2)CC(=O)[C@H](C)/C=C(\C)[C@@H](O)[C@@H](OC)C(=O)[C@H](C)C[C@H](C)/C=C/C=C/C=C/1C" 82.3

###

Assay: Sunitinib multiple-dose pharmacokinetics
Type: in vivo, patients
Conditions: human, plasma, oral, t1/2, subject 1003; multiple dose (dose 14), sunitinib 50 mg daily with everolimus 30 mg weekly
READOUT NAME: half-life (h)
Report the value in h with no unit label.

Look up half-life for this compound: CCN(CC)CCNC(=O)c1c(C)[nH]c(/C=C2\C(=O)Nc3ccc(F)cc32)c1C [Sunitinib, Sunitinib malate] 85.5
